The reported measurements were obtained from patent US9221798B2.

target: Raf-1 kinase (Homo sapiens); experiment: Assay for the inhibiting activity of kinase (Glo Plus / ADP Glo / Caliper), Raf-1; type: biochemical; conditions: kinase inhibition, incubated at 30° C. for 1 hour
Sequence (P04049 whole entry): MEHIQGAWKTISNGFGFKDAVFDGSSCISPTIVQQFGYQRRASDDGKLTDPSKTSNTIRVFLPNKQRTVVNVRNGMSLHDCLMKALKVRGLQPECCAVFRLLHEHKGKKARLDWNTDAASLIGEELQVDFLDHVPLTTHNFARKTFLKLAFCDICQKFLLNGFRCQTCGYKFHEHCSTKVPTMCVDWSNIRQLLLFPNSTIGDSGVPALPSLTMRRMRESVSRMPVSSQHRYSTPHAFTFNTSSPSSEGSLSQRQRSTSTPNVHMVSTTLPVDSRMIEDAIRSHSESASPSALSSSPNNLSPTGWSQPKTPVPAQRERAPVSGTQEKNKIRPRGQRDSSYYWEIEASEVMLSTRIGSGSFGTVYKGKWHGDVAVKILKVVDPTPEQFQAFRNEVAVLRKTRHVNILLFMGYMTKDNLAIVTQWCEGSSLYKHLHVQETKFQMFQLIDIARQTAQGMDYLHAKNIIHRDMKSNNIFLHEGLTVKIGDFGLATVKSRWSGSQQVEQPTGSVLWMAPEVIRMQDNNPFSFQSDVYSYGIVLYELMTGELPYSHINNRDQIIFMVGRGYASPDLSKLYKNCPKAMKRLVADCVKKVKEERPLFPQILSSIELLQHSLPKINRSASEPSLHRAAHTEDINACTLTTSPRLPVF
Can you tell me IC50 for the items I'm about to list?
Provide the reading as a plain figure in µM.

Enquiry: Tell me the measured IC50 of Cc1cc(Nc2nc(Nc3cc(NC(=O)Nc4ccc(Cl)c(C(F)(F)F)c4)ccc3C)ncc2C)n[nH]1 [Compound 6] , please.
Return: 0.25

Enquiry: Now try COc1cnc(Nc2cc(NC(=O)Nc3ccc(Cl)c(C(F)(F)F)c3)ccc2C)nc1Nc1cc(C)[nH]n1 [Compound 9] .
Return: 0.24

Enquiry: Now try Cc1cc(Nc2nc(Nc3cc(NC(=O)Nc4ccc(Cl)c(C(F)(F)F)c4)ccc3C)ncc2F)n[nH]1 [Compound 2] .
Return: 0.38

Enquiry: Now try Cc1cc(Nc2nc(Nc3cc(NC(=O)Nc4ccc(Cl)c(C(F)(F)F)c4)ccc3C)ncc2N)n[nH]1 [Compound 8] .
Return: 0.41

Enquiry: Now try Cc1cc(Nc2nc(Nc3cc(NC(=O)Nc4ccc(Cl)c(C(F)(F)F)c4)ccc3C)ncc2C(F)(F)F)n[nH]1 [Compound 3] .
Return: 1.53

Enquiry: Now try Cc1cc(Nc2nc(Nc3cc(NC(=O)Nc4ccc(Cl)c(C(F)(F)F)c4)ccc3C)ncc2O)n[nH]1 [Compound 11] .
Return: 2.14
